These data points were gathered from paper PMC11671014.

- methodSummary: Rat pharmacokinetics
- Type: in vivo, Sprague-Dawley rats
- conditionDescription: male, Sprague-Dawley, whole blood, PO 25 mg/kg, blood

[
  {
    "sampleSmiles": "CC(C)c1nn([C@@H]2O[C@H](COS(N)(=O)=O)[C@@H](O)[C@H]2O)c2ncnc(N)c12",
    "Tmax": "8 h"
  }
]

====

- methodSummary: Rat pharmacokinetics
- Type: in vivo, Sprague-Dawley rats
- conditionDescription: male, Sprague-Dawley, whole blood and plasma, intravenous, 1 mg/kg, time 8 h
measuredParameter: blood plasma ratio at 8 h

[
  {
    "compound": "CC(C)c1nn([C@@H]2O[C@H](COS(N)(=O)=O)[C@@H](O)[C@H]2O)c2ncnc(N)c12 [ML471]",
    "experimentalResult": 114
  }
]
